Listed next: entries and their corresponding IC50.
Biological target: Recombinant human ULK1 (1-649) (Homo sapiens (Human), UniProt O75385)
Sequence (O75385 1-649): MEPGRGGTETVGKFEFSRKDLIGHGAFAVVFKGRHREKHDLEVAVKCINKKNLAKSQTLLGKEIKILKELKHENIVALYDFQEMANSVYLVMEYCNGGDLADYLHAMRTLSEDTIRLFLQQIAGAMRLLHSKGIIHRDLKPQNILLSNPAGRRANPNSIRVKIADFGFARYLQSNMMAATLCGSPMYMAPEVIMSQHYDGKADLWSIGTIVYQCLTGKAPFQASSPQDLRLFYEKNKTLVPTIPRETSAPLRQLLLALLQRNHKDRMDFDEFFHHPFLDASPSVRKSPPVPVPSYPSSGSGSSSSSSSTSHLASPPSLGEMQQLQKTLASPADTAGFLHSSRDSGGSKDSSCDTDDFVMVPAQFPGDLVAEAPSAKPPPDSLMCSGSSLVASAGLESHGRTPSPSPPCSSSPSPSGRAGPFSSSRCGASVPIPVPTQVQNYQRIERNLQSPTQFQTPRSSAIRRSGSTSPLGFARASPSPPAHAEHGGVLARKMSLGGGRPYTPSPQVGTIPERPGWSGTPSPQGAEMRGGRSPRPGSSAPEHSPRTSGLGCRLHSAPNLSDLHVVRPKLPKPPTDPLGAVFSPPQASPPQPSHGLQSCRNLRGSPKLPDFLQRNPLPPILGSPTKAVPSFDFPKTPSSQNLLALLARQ
Assay: ULK1 ADP Glo kinase activity assay, new method (ULKtide peptide substrate)
Conditions: 25° C., 40 minutes, read-out: ULK1 biochemical IC50

INSERT INTO measurements (molecule, testreadout, experimentalvalue) VALUES
  ('CCc1cc2c(cc1Nc1ncc(C(F)(F)F)c(-c3cc4c(s3)C(=O)N(C)CCS4(=O)=O)n1)CCN(C)C2 [Example 148]', 'IC50', '≤ 5 nM');

Exercise: Report IC50 for CCc1cc(N2CCN[C@@H](CO)C2)ccc1Nc1ncc(C(F)(F)F)c(-c2cc3c(s2)C(=O)N(C2COC2)CCS3(=O)=O)n1 [Example 355] please.
Key: ≤ 5 nM

Exercise: Follow-up item: CN1CCS(=O)(=O)c2cc(-c3nc(Nc4cc5nnn(C)c5cc4Cl)ncc3C(F)(F)F)sc2C1=O [Example 200]
Key: > 100 nM

Exercise: Follow-up item: O=C1c2sc(-c3nc(Nc4cc5c(cc4C4CC4)CN(CCOC(F)(F)F)CC5)ncc3C(F)(F)F)cc2S(=O)(=O)CCN1C1COC1 [Example 312]
Key: 5 to 10 nM

Exercise: Follow-up item: CCc1cc(N2C[C@H](C)N[C@@H](C)C2)ccc1Nc1ncc(C(F)(F)F)c(-c2cc3c(s2)C(=O)N(C2COC2)CCS3(=O)=O)n1 [Example 370]
Key: ≤ 5 nM

Exercise: Follow-up item: CN1CCS(=O)(=O)c2cc(-c3nc(Nc4cc5c(cc4C4CC4)CNC5)ncc3C(F)(F)F)sc2C1=O [Example 177]
Key: ≤ 5 nM

====

Target: Recombinant human ULK1 (1-649) (Homo sapiens (Human))
Experiment: ULK1 ADP Glo kinase activity assay, new method (ULKtide peptide substrate)
Conditions: 25° C., 40 minutes, read-out: ULK1 biochemical IC50
pIC50: −log10 of the molar value.
testReadout: pIC50

INSERT INTO measurements (compound, experimentaltarget, testreadout, experimentalvalue) VALUES
  ('Cc1c(Nc2ncc(C(F)(F)F)c(-c3cc4c(s3)C(=O)N(C)CCS4(=O)=O)n2)cnn1C1CCNCC1 [Example 176]', 'Recombinant human ULK1 (1-649) (Homo sapiens (Human))', 'pIC50', '< 7.00');

From here, focus on the item given below.
Exercise: Entry CN1[C@@H]2CC[C@H]1CN(c1ccc(Nc3ncc(C(F)(F)F)c(-c4cc5c(s4)C(=O)N(C4COC4)CCS5(=O)=O)n3)c(C3CC3)c1)C2 [Example 320] , system Recombinant human ULK1 (1-649) (Homo sapiens (Human)): what pIC50 was measured?
Key: ≥ 8.30

====

Target: Recombinant human ULK1 (1-649) (Homo sapiens (Human))
Test: ULK1 ADP Glo kinase activity assay, new method (ULKtide peptide substrate)
Details: 25° C., 40 minutes, read-out: ULK1 biochemical IC50
Listed next: entries and their corresponding IC50.

INSERT INTO measurements (smilesinput, experimentaltarget, testreadout, experimentalvalue) VALUES
  ('CCc1cc(N2C[C@@H](C)N[C@@H](C)C2)ccc1Nc1ncc(C(F)(F)F)c(-c2cc3c(s2)C(=O)N(C2COC2)CCS3(=O)=O)n1', 'Recombinant human ULK1 (1-649) (Homo sapiens (Human))', 'IC50', '≤ 5 nM');

Exercise: Report IC50 for CCN1CCc2cc(Nc3ncc(C(F)(F)F)c(-c4cc5c(s4)C(=O)N(C4CCC4)CCS5(=O)=O)n3)c(Cl)cc2C1 please.
Key: ≤ 5 nM

Exercise: Follow-up item: CN1CCS(=O)(=O)c2cc(-c3nc(Nc4cc5c(cc4Cl)CNCC5)ncc3C(F)(F)F)sc2C1=O
Key: ≤ 5 nM

====

Target: Recombinant human ULK1 (1-649) (Homo sapiens (Human), UniProt O75385)
Test: ULK1 ADP Glo kinase activity assay (MBP substrate)
Conditions: 25° C., 40 minutes, read-out: ULK1 biochemical IC50
pIC50: −log10 of the molar value.
testReadout: pIC50

Answered cases to consult:
INSERT INTO results (compound, experimentaltarget, experimentalvalue) VALUES
  ('CS(=O)(=O)c1csc(-c2nc(Nc3cc4c(cc3Cl)CNCC4)ncc2C(F)(F)F)c1 [Example 32]', 'Recombinant human ULK1 (1-649) (Homo sapiens (Human), UniProt O75385)', '≥ 8.00'),
  ('Cc1nn(C2CN(C)C2)cc1Nc1ncc(C(F)(F)F)c(-c2cc(S(C)(=O)=O)cs2)n1 [Example 124]', 'Recombinant human ULK1 (1-649) (Homo sapiens (Human), UniProt O75385)', '6.30 to 7.00'),
  ('O=c1[nH]ccc2sc(-c3nc(Nc4cc5c(cc4Cl)CNCC5)ncc3C(F)(F)F)cc12 [Example 23]', 'Recombinant human ULK1 (1-649) (Homo sapiens (Human), UniProt O75385)', '≥ 8.00'),
  ('CCc1cc2c(cc1Nc1ncc(C(F)(F)F)c(-c3cc(C(N)=O)cs3)n1)CCNC2 [Example 9]', 'Recombinant human ULK1 (1-649) (Homo sapiens (Human), UniProt O75385)', '≥ 8.00'),
  ('FC(F)(F)c1cnc(Nc2cc3c(cc2Cl)CNCC3)nc1-c1cc(-c2ncco2)cs1 [Example 18]', 'Recombinant human ULK1 (1-649) (Homo sapiens (Human), UniProt O75385)', '7.30 to 8.00');

Exercise: Report pIC50 for CN1CCc2cc(Nc3ncc(C(F)(F)F)c(-c4cc5c(s4)C(=O)N(C)CCS5(=O)=O)n3)c(Cl)cc2C1 [Example 116] please.
Key: ≥ 8.00

Exercise: Follow-up item: NS(=O)(=O)c1csc(-c2nc(Nc3cc4c(cc3Cl)CNCC4)ncc2C(F)(F)F)c1 [Example 27]
Key: ≥ 8.00

Exercise: Follow-up item: CN1Cc2cc(Nc3ncc(C(F)(F)F)c(-c4cc(C(N)=O)cs4)n3)c(C3CC3)cc2C1 [Example 19]
Key: ≥ 8.00

====

Target: Recombinant human ULK1 (1-649) (Homo sapiens (Human), UniProt O75385)
Assay: ULK1 ADP Glo kinase activity assay (MBP substrate)
Details: 25° C., 40 minutes, read-out: ULK1 biochemical IC50
Listed next: entries and their corresponding IC50.

Answered cases to consult:
INSERT INTO measurements (molecule, testreadout, experimentalvalue) VALUES
  ('CN1CCc2sc(-c3nc(Nc4cc5c(cc4Cl)CNCC5)ncc3C(F)(F)F)cc2C1=O [Example 21]', 'IC50', '≤ 10 nM'),
  ('CS(=O)(=O)c1csc(-c2nc(Nc3cc4c(cc3Cl)CN(C3CC3)C4)ncc2C(F)(F)F)c1 [Example 113]', 'IC50', '10 to 50 nM');

Exercise: Report IC50 for Cc1nn(C2CNC2)cc1Nc1ncc(C(F)(F)F)c(-c2cc(S(C)(=O)=O)cs2)n1 [Example 123] please.
Key: 10 to 50 nM

Exercise: Follow-up item: CS(=O)(=O)c1csc(-c2nc(Nc3cn(C4CCNCC4)nc3C3CC3)ncc2C(F)(F)F)c1 [Example 128]
Key: ≤ 10 nM

====

Listed next: entries and their corresponding pIC50.
Biological target: Recombinant human ULK1 (1-649) (Homo sapiens (Human), UniProt O75385)
Assay: ULK1 ADP Glo kinase activity assay, new method (ULKtide peptide substrate)
Settings: 25° C., 40 minutes, read-out: ULK1 biochemical IC50
pIC50: −log10 of the molar value.

INSERT INTO results (compound, testreadout, experimentalvalue) VALUES
  ('CCc1cc2c(cc1Nc1ncc(C(F)(F)F)c(-c3cc4c(s3)C(=O)N(C3COC3)CCS4(=O)=O)n1)CNCC2 [Example 262]', 'pIC50', '≥ 8.30'),
  ('CN1CCS(=O)(=O)c2cc(-c3nc(Nc4cnc(N5C[C@H]6C[C@@H]5CN6)cc4C4CC4)ncc3C(F)(F)F)sc2C1=O [Example 382]', 'pIC50', '≥ 8.30'),
  ('O=C1c2sc(-c3nc(Nc4cc5c(cc4C4CC4)CN(C4COC4)CC5)ncc3C(F)(F)F)cc2S(=O)(=O)CCN1C1CC1 [Example 289]', 'pIC50', '8.00 to 8.30'),
  ('CN1CCS(=O)(=O)c2cc(-c3nc(Nc4ccc(N5CCNCC5)cc4C4CC4)ncc3C(F)(F)F)sc2C1=O [Example 238]', 'pIC50', '8.00 to 8.30'),
  ('N#CCN1CCc2cc(Nc3ncc(C(F)(F)F)c(-c4cc5c(s4)C(=O)N(C4CC4)CCS5(=O)=O)n3)c(C3CC3)cc2C1 [Example 276]', 'pIC50', '7.30 to 8.00');

From here, focus on the item given below.
Exercise: Report pIC50 for CN1C2CC1CN(c1ccc(Nc3ncc(C(F)(F)F)c(-c4cc5c(s4)C(=O)N(C4COC4)CCS5(=O)=O)n3)c(C3CC3)c1)C2 [Example 349] please.
Key: ≥ 8.30
